Biological target: acetylcholine receptor
Assay: SPR, acetylcholine receptor on CM5 chip, peptide at 10 uM
Quantity Measured: Binding affinity (RU)

[[record]]
binder = "KKSFCR [6mer-1-566]"
assay_result = 148

[[record]]
binder = "KKQLLK [6mer-1-587]"
assay_result = 148

[[record]]
binder = "RKQVSK [6mer-1-584]"
assay_result = 127

[[record]]
binder = "RRSVCK [6mer-1-543]"
assay_result = 145

[[record]]
binder = "RKWLSK [6mer-1-598]"
assay_result = 142

[[record]]
binder = "KKRVSR [6mer-1-567]"
assay_result = 136

[[record]]
binder = "RRGLCK [6mer-1-537]"
assay_result = 154

[[record]]
binder = "RRSFSK [6mer-1-560]"
assay_result = 127

[[record]]
binder = "RKVQQR [6mer-1-547]"
assay_result = 148

[[record]]
binder = "KRWVRR [6mer-1-575]"
assay_result = 148

[[record]]
binder = "KRGYCR [6mer-1-600]"
assay_result = 139

[[record]]
binder = "KRWQQK [6mer-1-568]"
assay_result = 147

[[record]]
binder = "KKSYQR [6mer-1-549]"
assay_result = 142

[[record]]
binder = "RRWFRK [6mer-1-536]"
assay_result = 151

[[record]]
binder = "RKLVQR [6mer-1-546]"
assay_result = 123

[[record]]
binder = "RRLVRK [6mer-1-588]"
assay_result = 153

[[record]]
binder = "RRLIQR [6mer-1-558]"
assay_result = 139

[[record]]
binder = "KRSVTR [6mer-1-554]"
assay_result = 131

[[record]]
binder = "RRSQCK [6mer-1-538]"
assay_result = 142

[[record]]
binder = "RRRLTK [6mer-1-559]"
assay_result = 139

[[record]]
binder = "KRSVRK [6mer-1-579]"
assay_result = 148

[[record]]
binder = "KKLYQR [6mer-1-599]"
assay_result = 124

[[record]]
binder = "RKLLCK [6mer-1-571]"
assay_result = 154

[[record]]
binder = "KRSITK [6mer-1-564]"
assay_result = 139

[[record]]
binder = "RKRLRK [6mer-1-570]"
assay_result = 122

[[record]]
binder = "KKSLCK [6mer-1-595]"
assay_result = 121

[[record]]
binder = "RKVYRK [6mer-1-593]"
assay_result = 148

[[record]]
binder = "KRQVQK [6mer-1-557]"
assay_result = 128

[[record]]
binder = "RKGVLR [6mer-1-596]"
assay_result = 148

[[record]]
binder = "RKRYRK [6mer-1-552]"
assay_result = 144

[[record]]
binder = "KKRLYR [6mer-1-591]"
assay_result = 147

[[record]]
binder = "KKSLQK [6mer-1-580]"
assay_result = 121

[[record]]
binder = "RKGVTK [6mer-1-590]"
assay_result = 142

